test: Study on in vivo pharmacokinetics in mice; conditions: mouse; male ICR mice, oral (intragastric) administration, 10 mg/kg, plasma, 8 h; read-out: C8 h (plasma concentration at 8 h)
readout kind: concentration at 8 h
Number first, unit second.

Consider the compound shown here: C[C@H]1CN(C2COC2)CCN1c1ccc(Nc2cc(-c3ccnc(N4CCn5c(cc6c5CC(C)(C)C6)C4=O)c3CO)cn(C)c2=O)nc1 [GDC-0853, fenebrutinib, reference compound] What is its recorded concentration at 8 h?
143 ng/mL

---

target: BTK recombinant protein (Homo sapiens (Human), UniProt Q06187); assay: Determination of biochemical BTK (Z'-LYTE kinase assay)
Sequence (Q06187 whole entry): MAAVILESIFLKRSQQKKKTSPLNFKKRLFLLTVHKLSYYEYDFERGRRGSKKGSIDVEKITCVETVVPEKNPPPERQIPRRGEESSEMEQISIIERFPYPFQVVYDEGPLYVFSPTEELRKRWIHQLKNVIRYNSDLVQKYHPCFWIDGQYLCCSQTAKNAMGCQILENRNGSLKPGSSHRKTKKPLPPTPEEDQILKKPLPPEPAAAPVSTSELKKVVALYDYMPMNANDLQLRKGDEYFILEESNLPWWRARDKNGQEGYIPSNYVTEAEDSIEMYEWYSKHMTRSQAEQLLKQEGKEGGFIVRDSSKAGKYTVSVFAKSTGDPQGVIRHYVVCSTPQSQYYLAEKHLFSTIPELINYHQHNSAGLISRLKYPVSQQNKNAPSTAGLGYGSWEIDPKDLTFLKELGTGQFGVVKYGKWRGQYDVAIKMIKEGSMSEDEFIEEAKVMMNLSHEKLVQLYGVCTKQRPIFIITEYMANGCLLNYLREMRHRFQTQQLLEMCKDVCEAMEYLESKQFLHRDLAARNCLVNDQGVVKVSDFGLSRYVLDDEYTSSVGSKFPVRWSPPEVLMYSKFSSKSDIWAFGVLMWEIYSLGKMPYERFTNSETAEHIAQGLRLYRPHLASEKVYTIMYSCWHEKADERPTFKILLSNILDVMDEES
Reported pIC50 by item:
# log scale: pIC50 equals minus log10 of the concentration in mol/L

Example results:
Consider the compound shown here: CCn1cc(Nc2cc(-c3ccnc(-n4ncn5c6c(cc5c4=O)CC(C)(C)C6)c3CO)cn3ncnc23)nn1 What is its recorded pIC50?
8.40

Consider the compound shown here: CC(C)n1cc(Nc2nc(-c3ccnc(-n4ccn5c6c(cc5c4=O)CC(C)(C)C6)c3CO)cn(C)c2=O)nn1 What is its recorded pIC50?
6.12

Consider the compound shown here: CCn1cc(Nc2cc(-c3ccnc(-n4ccn5c6c(c(F)c5c4=O)CCCC6)c3CO)cn(C)c2=O)cn1 What is its recorded pIC50?
7.80

Switching to the query record.
Consider the compound shown here: Cn1cc(-c2ccnc(-n3ccn4c5c(cc4c3=O)CC(C)(C)C5)c2CO)cc(Nc2ccccc2)c1=O What is its recorded pIC50?
6.36

---

molecular target: phosphorylated BTK in Ramos cells (Homo sapiens (Human)); assay: Determination of phosphorylated BTK in Ramos cells (BTK phospho-Y223 HTRF); settings: anti-human IgM + hydrogen peroxide stimulation
Reported pIC50 by item:
# log scale: pIC50 equals minus log10 of the concentration in mol/L

Consider the compound shown here: CCn1cc(Nc2cc(-c3ccnc(-n4ccn5c6c(cc5c4=O)CC(C)(C)C6)c3CO)nn(C)c2=O)nn1 [Compound 25] What is its recorded pIC50?
7.62

Consider the compound shown here: Cn1cc(Nc2cc(-c3ccnc(-n4ccn5c6c(cc5c4=O)CC(C)(C)C6)c3CO)nn(C)c2=O)nn1 [Compound 29] What is its recorded pIC50?
7.52

Consider the compound shown here: Cn1cc(-c2ccnc(-n3ccn4c5c(cc4c3=O)CC(C)(C)C5)c2CO)cc(Nc2ccccc2)c1=O [Compound 77] What is its recorded pIC50?
6.88

***
Consider the compound shown here: Cn1cc(Nc2cc(-c3ccnc(-n4ccn5c6c(cc5c4=O)CCC6)c3CO)cn(C)c2=O)nn1 [Compound 73] What is its recorded pIC50?
6.94

Consider the compound shown here: COCCN1CCn2nc(Nc3cc(-c4ccnc(-n5ncn6c7c(cc6c5=O)CCCC7)c4CO)cn(C)c3=O)cc2C1 [Compound 163] What is its recorded pIC50?
7.47

Consider the compound shown here: CCn1cc(-c2ccnc(-n3ncn4c5c(cc4c3=O)CC(C)(C)C5)c2CO)cc(Nc2ccc(N3C[C@@H](C)N(C4COC4)C[C@@H]3C)cn2)c1=O [Compound 210] What is its recorded pIC50?
7.72

---

test system: B cell activation in rat whole blood; test: Determination of B cell activity in whole blood of rats (anti-rat IgD induced B cell activation, flow cytometry); assay type: cell-based; conditions: anti-rat immunoglobulin D 10 μg/mL, 18 hours, inhibition of B cell activation
Reported pIC50 by item:
# log scale: pIC50 equals minus log10 of the concentration in mol/L

Example results:
Consider the compound shown here: COCCN1CCN(c2ccc(Nc3cc(-c4ccnc(-n5ccn6c7c(cc6c5=O)CC(C)(C)C7)c4CO)cn(C)c3=O)nc2)[C@@H](C)C1 What is its recorded pIC50?
7.77

Consider the compound shown here: CCn1cc(Nc2cc(-c3ccnc(-n4ccn5c6c(cc5c4=O)CC(C)(C)C6)c3CO)cn3ncnc23)nn1 What is its recorded pIC50?
7.04

Consider the compound shown here: C[C@H]1CN(C2COC2)CCN1c1ccc(Nc2cc(-c3ccnc(-n4ccn5c6c(cc5c4=O)CC(C)(C)C6)c3CO)cn3c(F)cnc23)nc1 What is its recorded pIC50?
6.56

Consider the compound shown here: C[C@H]1CN(C2COC2)CCN1c1cnc(Nc2cc(-c3ccnc(-n4ccn5c6c(cc5c4=O)CC(C)(C)C6)c3CO)cn(C)c2=O)cn1 What is its recorded pIC50?
7.28

Consider the compound shown here: CCn1cc(Nc2cc(-c3ccnc(-n4ccn5c6c(cc5c4=O)CC(C)(C)C6)c3CO)cn(C)c2=O)nn1 What is its recorded pIC50?
7.07

Switching to the query record.
Consider the compound shown here: C[C@H]1CN(C2COC2)CCN1c1ccc(Nc2cc(-c3ccnc(-n4ncn5c6c(cc5c4=O)CC(C)(C)C6)c3CO)cn(C)c2=O)nc1 What is its recorded pIC50?
8.22

---

Reported IC50 by item:
target: phosphorylated BTK in Ramos cells (Homo sapiens (Human), UniProt Q06187); assay: Determination of phosphorylated BTK in Ramos cells (BTK phospho-Y223 HTRF); conditions: anti-human IgM + hydrogen peroxide stimulation
Sequence (Q06187 whole entry): as above
The response must be a number in nM with no trailing unit.

Consider the molecule shown here: C[C@H]1CN(C2COC2)CCN1c1ccc(Nc2cc(-c3ccnc(-n4ccn5c6c(cc5c4=O)CCC6)c3CO)cn(C)c2=O)nc1 What is its recorded IC50?
10

Consider the molecule shown here: COCCN1CCN(c2ccc(Nc3cc(-c4ccnc(-n5ccn6c7c(cc6c5=O)CC(C)(C)C7)c4CO)cn(C)c3=O)nc2)[C@@H](C)C1 What is its recorded IC50?
2

Consider the molecule shown here: COCC(C)N1CCN(c2ccc(Nc3cc(-c4ccnc(-n5ncn6c7c(cc6c5=O)CC(C)(C)C7)c4CO)cn(C)c3=O)nc2)[C@@H](C)C1 (mixture of isomers) What is its recorded IC50?
11

Consider the molecule shown here: C[C@H]1COCCN1c1ccc(Nc2cc(-c3ccnc(-n4ncn5c6c(cc5c4=O)CC(C)(C)C6)c3CO)cn(C)c2=O)nc1 What is its recorded IC50?
7

Consider the molecule shown here: COC1CN(c2ccc(Nc3cc(-c4ccnc(-n5ccn6c7c(cc6c5=O)CC(C)(C)C7)c4CO)cn(C)c3=O)nc2)C1 What is its recorded IC50?
6

***
Consider the molecule shown here: COCCN1CCn2nc(Nc3cc(-c4ccnc(-n5ccn6c7c(cc6c5=O)CC(C)(C)C7)c4CO)cn(C)c3=O)cc2[C@@H]1C What is its recorded IC50?
11

Consider the molecule shown here: Cn1cc(Nc2cc(-c3ccnc(-n4ccn5c6c(cc5c4=O)CC(C)(C)C6)c3CO)cn(C)c2=O)cn1 What is its recorded IC50?
6

Consider the molecule shown here: C[C@H]1CN(C2COC2)CCN1c1ccc(Nc2cc(-c3ccnc(-n4ccn5c6c(cc5c4=O)CC(C)(C)C6)c3CO)cn3ncnc23)nc1 What is its recorded IC50?
15

Consider the molecule shown here: CC(C)n1cc(Nc2cc(-c3ccnc(-n4ccn5c6c(cc5c4=O)CC(C)(C)C6)c3CO)cn(C)c2=O)nn1 What is its recorded IC50?
2

Consider the molecule shown here: COCc1c(-c2cc(Nc3ccc(N4CCN(C5COC5)C[C@@H]4C)cn3)c(=O)n(C)c2)ccnc1-n1ccn2c3c(cc2c1=O)CC(C)(C)C3 What is its recorded IC50?
139

Consider the molecule shown here: COCCN1CCn2nc(Nc3cc(-c4ccnc(-n5nc(C)n6c7c(cc6c5=O)CC(C)(C)C7)c4CO)cn(C)c3=O)cc2C1C (racemic) What is its recorded IC50?
21

Consider the molecule shown here: CN(c1ccc(Nc2cc(-c3ccnc(-n4ncn5c6c(cc5c4=O)CC(C)(C)C6)c3CO)cn(C)c2=O)nc1)C1COC1 What is its recorded IC50?
1

Consider the molecule shown here: Cn1cc(-c2ccnc(-n3ccn4c5c(cc4c3=O)CC(C)(C)C5)c2CO)cc(Nc2ccc(N3C[C@@H]4C[C@H]3CN4C3COC3)cn2)c1=O What is its recorded IC50?
20

---

experiment: Study on in vivo pharmacokinetics in mice; details: mouse; male ICR mice, oral (intragastric) administration, 10 mg/kg, plasma; read-out: Cmax
Reported Cmax by item:
The response must be a number in ng/mL with no trailing unit.

Consider the compound shown here: C[C@H]1CN(C2COC2)CCN1c1ccc(Nc2cc(-c3ccnc(N4CCn5c(cc6c5CC(C)(C)C6)C4=O)c3CO)cn(C)c2=O)nc1 [GDC-0853, fenebrutinib, reference compound] What is its recorded Cmax?
4060

Switching to the query record.
Consider the compound shown here: C[C@H]1CN(C2COC2)CCN1c1ccc(Nc2cc(-c3ccnc(-n4ccn5c6c(cc5c4=O)CC(C)(C)C6)c3CO)cn(C)c2=O)nc1 [Compound 19] What is its recorded Cmax?
3810

---

target: BTK recombinant protein (Homo sapiens (Human)); experiment: Determination of biochemical BTK (Z'-LYTE kinase assay)
Label 1 when IC50 is strictly below 20 nM; at or above that, label 0.

Record excerpt, results attached:
For CCN1CCn2nc(Nc3cc(-c4ccnc(-n5ncn6c7c(cc6c5=O)CC(C)(C)C7)c4CO)cn(C)c3=O)cc2C1 , is the recorded IC50 below the cut-off of 20 nM?
1

For C[C@H]1CN(C2COC2)CCN1c1ccc(Nc2cc(-c3ccnc(-n4ccn5c6c(c(F)c5c4=O)CCCC6)c3CO)cn(C)c2=O)nc1 , is the recorded IC50 below the cut-off of 20 nM?
1

For CC[C@H]1CN(C2COC2)CCN1c1ccc(Nc2cc(-c3ccnc(-n4ccn5c6c(cc5c4=O)CC(C)(C)C6)c3CO)cn(C)c2=O)nn1 , is the recorded IC50 below the cut-off of 20 nM?
1

***
For C[C@H]1CN(C2COC2)CCN1c1ccc(Nc2cc(-c3ccnc(-n4ccn5c6c(cc5c4=O)CC(C)(C)C6)c3CO)cn(C)c2=O)nn1 , is the recorded IC50 below the cut-off of 20 nM?
1

For COCC(C)N1CCn2nc(Nc3cc(-c4ccnc(-n5ccn6c7c(cc6c5=O)CC(C)(C)C7)c4CO)cn(C)c3=O)cc2C1 (centres unmarked) , is the recorded IC50 below the cut-off of 20 nM?
1

For Cn1cc(-c2ccnc(-n3ncn4c5c(cc4c3=O)CCCC5)c2CO)cc(Nc2cc3n(n2)CCN(C2COC2)C3)c1=O , is the recorded IC50 below the cut-off of 20 nM?
0

For COCCN1CCn2nc(Nc3cc(-c4ccnc(-n5ccn6c7c(cc6c5=O)CCC7)c4CO)cn(C)c3=O)cc2C1 , is the recorded IC50 below the cut-off of 20 nM?
0

For Cn1cc(-c2ccnc(-n3ccn4c5c(cc4c3=O)CC(C)(C)C5)c2CO)cc(Nc2ccc(C3CN(C4COC4)C3)cn2)c1=O , is the recorded IC50 below the cut-off of 20 nM?
1

For COCCN1CCn2nc(Nc3cc(-c4ccnc(-n5ncn6c7c(cc6c5=O)CC(C)(C)C7)c4CO)cn(C)c3=O)cc2[C@@H]1C , is the recorded IC50 below the cut-off of 20 nM?
1

For COC1CN(c2ccc(Nc3cc(-c4ccnc(-n5ncn6c7c(cc6c5=O)CC(C)(C)C7)c4CO)cn(C)c3=O)nc2)C1 , is the recorded IC50 below the cut-off of 20 nM?
0

For COc1ccc(Nc2cc(-c3ccnc(-n4ccn5c6c(cc5c4=O)CC(C)(C)C6)c3CO)cn(C)c2=O)nn1 , is the recorded IC50 below the cut-off of 20 nM?
0

For COC1CN(c2ccc(Nc3cc(-c4ccnc(-n5ccn6c7c(cc6c5=O)CCC7)c4CO)cn(C)c3=O)nc2)C1 , is the recorded IC50 below the cut-off of 20 nM?
0

For C[C@H]1CN(C2COC2)CCN1c1cnc(Nc2cc(-c3ccnc(-n4ccn5c6c(cc5c4=O)CC(C)(C)C6)c3CO)cn(C)c2=O)nc1 , is the recorded IC50 below the cut-off of 20 nM?
0

For C[C@H]1CN(C2COC2)CCN1c1ccc(Nc2cc(-c3ccnc(-n4ccn5c6c(cc5c4=O)CC(C)(C)C6)c3CO)n[nH]c2=O)nc1 , is the recorded IC50 below the cut-off of 20 nM?
1
